test system: 855422-203-R-J1-PDC complex spheroid viability; assay: Anticancer human tumor 855422-203-R-J1-PDC patient-derived bladder carcinoma cell line growth inhibition; conditions: second compound 0.1 µM; first compound 0.0316 µM; hits give low values;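 further: drug exposure lasted 7 days starting on day 3 after seeding; luminescence viability as percent of DMSO vehicle wells = 100%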

| molecule | experimentalSystem | viability, T/C (%) |
| --- | --- | --- |
| Cn1ncnc1C1c2n[nH]c(=O)c3cc(F)cc(c23)NC1c1ccc(F)cc1 (stereo not drawn) + NC1CCC(NC2CC2c2ccccc2)CC1 | 855422-203-R-J1-PDC complex spheroid viability | 78 |
| O=C(c1cc(Cc2n[nH]c(=O)c3ccccc23)ccc1F)N1CCN(C(=O)C2CC2)CC1 + NC1CC1c1ccc(-c2cccc(O)c2)cc1 | 855422-203-R-J1-PDC complex spheroid viability | 98.9 |
| Nc1ncn(C2CC(O)C(CO)O2)c(=O)n1 (stereo not drawn) + NC1CCC(NC2CC2c2ccccc2)CC1 | 855422-203-R-J1-PDC complex spheroid viability | 95.6 |
| CC(C)CC(NC(=O)C(Cc1ccccc1)NC(=O)c1cnccn1)B(O)O (stereo not drawn) + NC1CC1c1ccc(-c2cccc(O)c2)cc1 | 855422-203-R-J1-PDC complex spheroid viability | 0.03 |
| CC(C)c1c(-c2ccccc2)nc2c(C#N)c[nH]n2c1=O + NC1CC1c1ccc(-c2cccc(O)c2)cc1 | 855422-203-R-J1-PDC complex spheroid viability | 96.8 |
| COc1ccc([C@@H](O)c2cc(-c3ncnc4cc(N5CCOCC5)ccc34)c(F)cc2Cl)nn1 + NC1CC1c1ccc(-c2cccc(O)c2)cc1 | 855422-203-R-J1-PDC complex spheroid viability | 86.7 |
| CC(C)CC(NC(=O)C(Cc1ccccc1)NC(=O)c1cnccn1)B(O)O (stereo not drawn) + NC1CCC(NC2CC2c2ccccc2)CC1 | 855422-203-R-J1-PDC complex spheroid viability | 0.02 |
| O=C(C=Cn1cnc(-c2cc(C(F)(F)F)cc(C(F)(F)F)c2)n1)NNc1cnccn1 + NC1CCC(NC2CC2c2ccccc2)CC1 | 855422-203-R-J1-PDC complex spheroid viability | 49.8 |
